- Tgt: T1, alpha-s1 casein from Bos taurus
- T1 chain: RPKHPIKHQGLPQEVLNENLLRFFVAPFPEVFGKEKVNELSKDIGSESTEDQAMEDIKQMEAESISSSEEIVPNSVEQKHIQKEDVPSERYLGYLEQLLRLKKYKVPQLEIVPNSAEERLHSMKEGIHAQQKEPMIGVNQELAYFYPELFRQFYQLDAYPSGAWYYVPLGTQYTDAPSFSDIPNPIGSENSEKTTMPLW
Parameter Measured: αs1-I CN, 24 hours, 11° C. (Volume)
Answer in Volume, number only, no unit symbol.

[[record]]
protein = "camel chymosin variant #147 (Q288H) (protein) GKVAREPLTSYLDSQYFGKIYIGTPPQEFTVVFDTGSSDLWVPSIYCKSNVCKNHHRFDPRKSSTFRNLGKPLSIHYGTGSMEGFLGYDTVTVSNIVDPNQTVGLSTEQPGEVFTYSEFDGILGLAYPSLASEYSVPVFDNMMDRHLVARDLFSVYMDRNGQGSMLTLGAIDPSYYTGSLHWVPVTLQQYWQFTVDSVTINGVAVACVGGCQAILDTGTSVLFGPSSDILKIQMAIGATENRYGEFDVNCGNLRSMPTVVFEINGRDYPLSPSAYTSKDQGFCTSGFHGDNNSELWILGDVFIREYYSVFDRANNRVGLAKAI"
parameter_measured = "αs1-I CN, 24 hours, 11° C."
assay_value = "2.35e+07"


Data point: bovine chymosin B variant #1 (A51V) (protein) GEVASVPLTNYLDSQYFGKIYLGTPPQEFTVLFDTGSSDFWVPSIYCKSNVCKNHQRFDPRKSSTFQNLGKPLSIHYGTGSMQGILGYDTVTVSNIVDIQQTVGLSTQEPGDVFTYAEFDGILGMAYPSLASEYSIPVFDNMMNRHLVAQDLFSVYMDRNGQESMLTLGAIDPSYYTGSLHWVPVTVQQYWQFTVDSVTISGVVVACEGGCQAILDTGTSKLVGPSSDILNIQQAIGATQNQYGEFDIDCDNLSYMPTVVFEINGKMYPLTPSAYTSQDQGFCTSGFQSENHSQKWILGDVFIREYYSVFDRANNLVGLAKAI ; αs1-I CN, 24 hours, 11° C. = 2.36e+07

camel chymosin variant #156 (D290S) (protein) GKVAREPLTSYLDSQYFGKIYIGTPPQEFTVVFDTGSSDLWVPSIYCKSNVCKNHHRFDPRKSSTFRNLGKPLSIHYGTGSMEGFLGYDTVTVSNIVDPNQTVGLSTEQPGEVFTYSEFDGILGLAYPSLASEYSVPVFDNMMDRHLVARDLFSVYMDRNGQGSMLTLGAIDPSYYTGSLHWVPVTLQQYWQFTVDSVTINGVAVACVGGCQAILDTGTSVLFGPSSDILKIQMAIGATENRYGEFDVNCGNLRSMPTVVFEINGRDYPLSPSAYTSKDQGFCTSGFQGSNNSELWILGDVFIREYYSVFDRANNRVGLAKAI has a reported αs1-I CN, 24 hours, 11° C. of 3.16e+07

Kindly note the recorded αs1-I CN, 24 hours, 11° C. for bovine chymosin B variant #62 (V223Q) (protein) GEVASVPLTNYLDSQYFGKIYLGTPPQEFTVLFDTGSSDFWVPSIYCKSNACKNHQRFDPRKSSTFQNLGKPLSIHYGTGSMQGILGYDTVTVSNIVDIQQTVGLSTQEPGDVFTYAEFDGILGMAYPSLASEYSIPVFDNMMNRHLVAQDLFSVYMDRNGQESMLTLGAIDPSYYTGSLHWVPVTVQQYWQFTVDSVTISGVVVACEGGCQAILDTGTSKLQGPSSDILNIQQAIGATQNQYGEFDIDCDNLSYMPTVVFEINGKMYPLTPSAYTSQDQGFCTSGFQSENHSQKWILGDVFIREYYSVFDRANNLVGLAKAI , which is 1.99e+07
